target under test: UniProtKB Q9Y5N1
run description: H3 Receptor Binding (Human) Method 2, [125I]-iodoproxyfan competitive radioligand binding
Parameters: expressed in transfected cells
details: read-out: Human H3 Ki
pKi: −log10 of the molar value.
reported metric: pKi

1 = CC(C)(C)OC(=O)N1C[C@H](O)C[C@@H]1C(=O)N1CCCN(C2CCCC2)CC1
2 = O=C([C@H]1C[C@H](Oc2ccc(F)cc2)CN1)N1CCCN(C2CC2)CC1
3 = CC(C)(C)OC(=O)N1CC[C@@H](Oc2ccc(C#N)cc2)[C@H]1C(=O)N1CCCN(C2CCC2)CC1
4 = CSc1ccc(O[C@H]2C[C@H](C(=O)N3CCCN(C4CCC4)CC3)N(C(C)=O)C2)cc1
Request: Arrange the items listed above so that pKi rises from first to last. I'd appreciate it if you listed the labels in the requested order.
Response: 3, 1, 2, 4
(3: 5.96, 1: 6.36, 2: 7.70, 4: 8.70)

* * *

compounds and their reported Rat pA2
target under test: rat H3 receptor (Rattus norvegicus, UniProt Q9QYN8)
Construct: expressed in transfected cells; host or cells: SK-N-MC sublines with a reporter construct
Sequence (Q9QYN8 whole entry): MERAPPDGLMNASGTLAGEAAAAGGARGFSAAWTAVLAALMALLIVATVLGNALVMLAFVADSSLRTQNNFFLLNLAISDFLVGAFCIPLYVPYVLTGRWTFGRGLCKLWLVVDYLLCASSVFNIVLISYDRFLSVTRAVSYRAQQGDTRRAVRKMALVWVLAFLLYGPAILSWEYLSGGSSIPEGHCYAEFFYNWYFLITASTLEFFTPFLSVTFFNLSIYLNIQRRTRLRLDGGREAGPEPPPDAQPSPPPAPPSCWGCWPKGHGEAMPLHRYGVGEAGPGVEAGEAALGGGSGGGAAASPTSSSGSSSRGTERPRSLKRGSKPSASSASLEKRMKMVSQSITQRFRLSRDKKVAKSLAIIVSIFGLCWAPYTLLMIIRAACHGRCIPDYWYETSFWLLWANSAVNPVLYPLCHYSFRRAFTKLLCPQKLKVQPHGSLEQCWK
run description: Cyclic AMP Accumulation (rat H3 reporter subline)
Type: cell-based
details: SK-N-MC subline with reporter construct and rat H3 receptor; free base or trifluoroacetate salt; average
Reply with just the number.

The examples below pair each entry with its known result.
O=C([C@H]1C[C@H](Oc2ccc(Cl)cc2)CN1)N1CCCN(C2CCC2)CC1 : 8.30
N#Cc1ccc(O[C@@H]2CN[C@@H](C(=O)N3CCCN(C4CCCC4)CC3)C2)cc1 : 8.51

Request: Give rat H3 receptor (Rattus norvegicus, UniProt Q9QYN8) Rat pA2 for the following compound: `O=C([C@H]1C[C@H](Oc2ccc(F)cc2)CN1)N1CCCN(C2CCCC2)CC1`
Response: 8.21

Request: Supply Rat pA2 measured with rat H3 receptor (Rattus norvegicus, UniProt Q9QYN8) for `O=C([C@H]1C[C@H](Oc2cccc(Cl)c2)CN1)N1CCCN(C2CCC2)CC1` .
Response: 8.59

Request: Report measured Rat pA2 on rat H3 receptor (Rattus norvegicus, UniProt Q9QYN8); entry: `CC(=O)N1C[C@@H](Oc2cccc(F)c2)C[C@@H]1C(=O)N1CCCN(C2CCC2)CC1`
Response: 8.22

* * *

target under test: UniProt Q9Y5N1
run description: H3 Receptor Binding (Human) Method 2, [125I]-iodoproxyfan competitive radioligand binding
Design: expressed in transfected cells
details: read-out: Human H3 Ki
reported metric: Ki (nM)

CC(C)(C)OC(=O)N1CC[C@H](O)[C@H]1C(=O)N1CCCN(C2CCC2)CC1 : 1270
CC(C)(C)OC(=O)N1C[C@H](O)C[C@@H]1C(=O)N1CCN(C2CCCC2)CC1 : 1110
CC(C)(C)OC(=O)N1C[C@@H](Oc2ccccc2)C[C@@H]1C(=O)N1CCCN(C2CCC2)CC1 : 9
O=C([C@H]1C[C@H](Oc2ccsc2)CN1)N1CCCN(C2CCC2)CC1 : 5

P = Cc1cc(O[C@H]2C[C@H](C(=O)N3CCCN(C4CCC4)CC3)N(C(=O)OC(C)(C)C)C2)ccc1Cl
Q = O=C([C@@H]1C[C@@H](Cc2ccccc2)CN1)N1CCCN(C2CCC2)CC1
R = CC(=O)N1C[C@H](Cc2cccc(F)c2)C[C@H]1C(=O)N1CCCN(C2CCC2)CC1
Request: Sort the 3 compounds by Ki; largest first, smallest last. The response must list the labels following the requested ordering.
Response: R, Q, P
(R: 1160 nM, Q: 263 nM, P: 4 nM)

* * *

target under test: human H3 receptor (Homo sapiens, UniProt Q9Y5N1)
Sequence (Q9Y5N1 whole entry): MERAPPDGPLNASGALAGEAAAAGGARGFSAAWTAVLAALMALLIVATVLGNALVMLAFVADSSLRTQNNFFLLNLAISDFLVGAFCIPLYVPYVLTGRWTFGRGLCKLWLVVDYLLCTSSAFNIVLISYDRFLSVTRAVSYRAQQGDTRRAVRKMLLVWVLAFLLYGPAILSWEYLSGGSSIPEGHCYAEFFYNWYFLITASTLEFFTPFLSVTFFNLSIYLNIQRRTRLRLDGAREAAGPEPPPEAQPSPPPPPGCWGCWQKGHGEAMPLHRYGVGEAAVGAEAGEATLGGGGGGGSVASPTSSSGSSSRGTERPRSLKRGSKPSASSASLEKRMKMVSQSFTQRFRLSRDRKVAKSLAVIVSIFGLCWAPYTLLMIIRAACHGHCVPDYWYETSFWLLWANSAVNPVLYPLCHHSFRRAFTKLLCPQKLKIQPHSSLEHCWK
run description: H3 Receptor Binding (Human) Method 2, [125I]-iodoproxyfan competitive radioligand binding
Parameters: expressed in transfected cells
details: read-out: Human H3 Ki
pKi: −log10 of the molar value.
reported metric: pKi

CC(C)(C)OC(=O)N1C[C@H](Oc2cccc(F)c2)C[C@H]1C(=O)N1CCCN(C2CCC2)CC1 : 8.22
CC(C)(C)OC(=O)N1C[C@H](Oc2ccc(F)cc2)C[C@@H]1C(=O)N1CCCN(C2CCC2)CC1 : 7.31

1 = CC(C)(C)OC(=O)N1C[C@H](Cc2ccc(F)cc2)C[C@H]1C(=O)N1CCCN(C2CCC2)CC1
2 = CC(C)(C)OC(=O)N1C[C@@H](OCc2ccc(F)cc2)C[C@@H]1C(=O)N1CCCN(C2CCC2)CC1
Request: // select label with min value of measured pKi from [ 1 , 2 ] Reply briefly: the label of your chosen item.
Response: 1

* * *

target under test: human H3 receptor (Homo sapiens, UniProt Q9Y5N1)
run description: H3 Receptor Binding (Human) Method 2, [125I]-iodoproxyfan competitive radioligand binding
Set-up: expressed in transfected cells
details: read-out: Human H3 Ki
pKi: −log10 of the molar value.
reported metric: pKi

Illustrative cases are given below, each with its answer.
CC(C)C(=O)N1C[C@@H](Oc2cccc(F)c2)C[C@@H]1C(=O)N1CCCN(C2CCC2)CC1 : 7.74
CC(C)(C)OC(=O)N1C[C@@H](O)C[C@@H]1C(=O)N1CCCN(C2CCC2)CC1 : 7.28
CC(C)(C)OC(=O)N1C[C@H](Oc2ccc(C#N)cc2)C[C@@H]1C(=O)N1CCCN(C2CCC2)CC1 : 6.80
Cc1cnc(F)cc1O[C@@H]1C[C@@H](C(=O)N2CCCN(C3CCC3)CC2)N(C(=O)OC(C)(C)C)C1 (stereo in doubt) : 8.70
Cc1cnc(O[C@H]2C[C@H](C(=O)N3CCCN(C4CCC4)CC3)N(C(=O)OC(C)(C)C)C2)cc1I : 8.10

1 = CC(=O)N1C[C@@H](Oc2cccs2)C[C@@H]1C(=O)N1CCCN(C2CCC2)CC1
2 = Cc1ccccc1O[C@H]1C[C@H](C(=O)N2CCCN(C3CCC3)CC2)N(C(=O)OC(C)(C)C)C1
3 = CC(C)(C)OC(=O)N1C[C@@H](Oc2ccc(F)cc2)C[C@@H]1C(=O)N1CCN(C2CCCC2)CC1
4 = CC(C)(C)OC(=O)N1C[C@H](Cc2ccccc2)C[C@H]1C(=O)N1CCCN(C2CCC2)CC1
5 = CC(C)(C)OC(=O)N1CC[C@@H](Oc2ccc(F)cc2)[C@H]1C(=O)N1CCCN(C2CCC2)CC1
Request: Arrange the 5 compounds from largest to smallest pKi. Write out the labels following the order that was asked for.
Response: 1, 2, 3, 4, 5

I = CC(C)(C)OC(=O)N1C[C@@H](Oc2ccc(F)cc2)C[C@@H]1C(=O)N1CCCN(C2CCCC2)CC1
II = COc1cccc(O[C@H]2C[C@H](C(=O)N3CCCN(C4CCC4)CC3)N(C(=O)OC(C)(C)C)C2)c1
Request: // max by pKi over [ I , II ] Returns: label corresponding to the selected item.
Response: I
(I: 8.70, II: 7.92)

* * *

target under test: cloned rat H3 receptors (Rattus norvegicus, UniProt Q9QYN8)
Construct: expressed in transfected cells
Sequence (Q9QYN8 whole entry): as the sequence (Q9QYN8 whole entry) above
run description: H3 Receptor Binding (Rat)
details: receptor stably expressed in SK-N-MC cells; free base or hydrochloride salt; average of results; read-out: Rat H3 Ki
reported metric: Ki (nM)

Solved entries (count: 2):
O=C([C@H]1C[C@H](Oc2ccccc2)CN1)N1CCCN(C2CCC2)CC1 : 502
CSc1ccc(O[C@H]2C[C@H](C(=O)N3CCCN(C4CCC4)CC3)N(C(C)=O)C2)cc1 : 15

I = O=C([C@H]1C[C@H](OCc2cccc(F)c2)CN1)N1CCCN(C2CCC2)CC1
II = O=C([C@H]1C[C@H](OCc2ccc(F)cc2)CN1)N1CCCN(C2CCC2)CC1
III = CC(=O)N1C[C@@H](Oc2ccc(F)cc2)C[C@@H]1C(=O)N1CCCN(C2CCC2)CC1
IV = O=C([C@@H]1C[C@@H](Oc2cccc(Cl)c2)CN1)N1CCCN(C2CCC2)CC1
Request: Endpoint returns the given compounds ordered by ascending Ki. Output the labels ranked as instructed.
Response: I, II, III, IV
(I: 8 nM, II: 13 nM, III: 30 nM, IV: 130 nM)

* * *

target under test: human H3 receptor (Homo sapiens)
run description: H3 Receptor Binding (Human) Method 2, [125I]-iodoproxyfan competitive radioligand binding
Set-up: expressed in transfected cells
details: read-out: Human H3 Ki
reported metric: Ki (nM)

CC(=O)N1C[C@@H](Oc2cccc(F)c2)C[C@@H]1C(=O)N1CCCNCC1 [Example 156] : 1160

P = Cc1ccc(O[C@@H]2CN[C@@H](C(=O)N3CCCN(C4CCC4)CC3)C2)cc1 [Example 76]
Q = O=C([C@@H]1C[C@@H](Cc2cccc(F)c2)CN1)N1CCCN(C2CCC2)CC1 [Example 179]
Request: Quick check, higher Ki between P and Q ? State your choice using its label.
Response: Q
(Q: 348 nM, P: 5 nM)

1 = CC(C)(C)OC(=O)N1C[C@@H](Oc2ccc(C#N)cc2)C[C@@H]1C(=O)N1CCCN(C2CC2)CC1 [Example 32]
2 = CC(=O)N1C[C@@H](O)C[C@@H]1C(=O)N1CCCN(C2CCC2)CC1 [Example 10]
Request: // compare measured Ki between 1 and 2 ; output the lower one // respond with label for picked entry
Response: 1
(1: 10 nM, 2: 115 nM)

P = CSc1ccc(O[C@H]2C[C@H](C(=O)N3CCCN(C4CCC4)CC3)N(C(=O)OC(C)(C)C)C2)cc1 [Example 23]
Q = CC(C)(C)OC(=O)N1C[C@@H](Oc2cccc(F)c2)C[C@@H]1C(=O)N1CCCN(C2CCC2)CC1 [Example 17]
R = CN(C)C1CCN(C(=O)[C@H]2C[C@H](Oc3ccc(F)cc3)CN2C(=O)OC(C)(C)C)CC1 [Example 40]
Request: Ascending by Ki, please: list the compounds accordingly. Your reply should list the labels following the order given in the request.
Response: Q, P, R
(Q: 3 nM, P: 7 nM, R: 1240 nM)

src = patent US8236792B2
